Reported LC50, CL values follow for various compounds
# Test system: Cabbage Looper [Trichoplusia ni (Hubner)]
# measurementDescription: Cabbage looper insecticidal test
# Type: in vivo
# conditionNotes: second-instar larvae, percent in solution; 3-5 days
# unit: % | format: bare number

Answered cases to consult:
| structureNotation | LC50, CL / % |
| --- | --- |
| Cc1cccc(N=C(OCc2ccc(F)c(Oc3ccc(Cl)cc3)c2)C(C)C)c1 | 0.0017 |
| CC(C)C(=Nc1cccc([N+](=O)[O-])c1)OCc1cccc(Oc2ccccc2)c1 | 0.003 |
| CC(C)C(=Nc1cc(F)cc(C(F)(F)F)c1)OCc1cccc(Oc2ccccc2)c1 | 0.0005 |

Turning now to a further compound:
**Q:** Record lookup: for Cabbage Looper [Trichoplusia ni (Hubner)], what LC50, CL belongs to CCOC(=O)c1cc(N=C(OCc2cccc(Oc3ccccc3)c2)C(C)C)ccc1Cl ?
**A:** 0.075

====

Reported LC50, MW values follow for various compounds
# Test system: Maize weevil [Sitophilus Zeamais (Motschulsky)]
# measurementDescription: Maize weevil insecticidal test
# Assay type: in vivo
# conditionNotes: adult weevils, percent in solution; 48 hours

Answered cases to consult:
| compound | testedTarget | LC50, MW |
| --- | --- | --- |
| CC(C)C(=Nc1ccc(F)c(Cl)c1F)OCc1ccc(F)c(Oc2ccc(F)cc2)c1 [Compound 330] | Maize weevil [Sitophilus Zeamais (Motschulsky)] | 0.001% |
| CC(C)C(=Nc1ccc(F)cc1)OCc1cccc(Oc2ccc(Br)cc2)c1 [Compound 259] | Maize weevil [Sitophilus Zeamais (Motschulsky)] | > 0.01% |
| Cc1cc(N=C(OCc2ccc(F)c(Oc3ccccc3)c2)C(C)C)ccc1Br [Compound 358] | Maize weevil [Sitophilus Zeamais (Motschulsky)] | > 0.01% |
| Cc1cccc(N=C(OCc2ccc(F)c(Oc3ccc(Cl)cc3)c2)C(C)C)c1 [Compound 401] | Maize weevil [Sitophilus Zeamais (Motschulsky)] | > 0.01% |
| CC(C)C(=Nc1ccc(Br)cc1)OCc1ccc(F)c(Oc2ccc(F)cc2)c1 [Compound 333] | Maize weevil [Sitophilus Zeamais (Motschulsky)] | > 0.01% |
| CC(C)C(=Nc1ccc(F)c(Cl)c1)OCc1cccc(Oc2cccc(F)c2)c1 [Compound 125] | Maize weevil [Sitophilus Zeamais (Motschulsky)] | > 0.01% |
| CC(C)C(=Nc1ccc(Cl)c(Cl)c1)OCc1cccc(Nc2ccc(F)cc2)c1 [Compound 514] | Maize weevil [Sitophilus Zeamais (Motschulsky)] | > 0.01% |
| CC(C)C(=Nc1cccc(C(F)(F)F)c1)OCc1ccnc(Oc2ccccc2)c1 [Compound 507] | Maize weevil [Sitophilus Zeamais (Motschulsky)] | > 0.01% |

Turning now to a further compound:
**Q:** Query (compound): C#CCc1c(F)c(F)c(COC(=Nc2cccc(C(F)(F)F)c2)C(C)C)c(F)c1F [Compound 546] ; field requested: LC50, MW
**A:** 0.0032%

====

# System: Cabbage Looper [Trichoplusia ni (Hubner)]
# measurementDescription: Cabbage looper insecticidal test
# Format: in vivo
# conditionNotes: second-instar larvae, percent in solution; 3-5 days
Reported LC50, CL values follow for various compounds
# unit: % | format: bare number

**Q:** Query (compound): CC(C)C(=Nc1ccc(Br)cc1F)OCc1cccc(Oc2ccc(F)cc2)c1 [Compound 351] ; field requested: LC50, CL
**A:** 0.0007

**Q:** Query (compound): CC(C)C(=Nc1ccc(F)cc1)OCc1ccc(F)c(Oc2ccc(Cl)cc2)c1 [Compound 325] ; field requested: LC50, CL
**A:** 0.00012

Where these numbers come from: patent US5070210A
